Readings of Plant response rating, Foxtail, Giant for the listed molecules
System: giant foxtail
Assay: Test A pre-/postemergence herbicide test
Type: in vivo, Setaria faberii
Conditions: Postemergence, 500 g ai/ha; 0 to 100 scale (0 no effect, 100 complete control)
READOUT_TYPE: Plant response rating, Foxtail, Giant

| MOLECULE | READOUT_TYPE | REPORTED_VALUE |
| --- | --- | --- |
| O=C1NCC(c2ccc(Cl)c(Cl)c2)C1C(=O)Nc1ccc(F)c(F)c1F (stereo not drawn) | Plant response rating, Foxtail, Giant | 70 |
| O=C1NCC(c2cccc(C(F)(F)F)c2)C1C(=O)Nc1cc(F)ccc1F (stereo not drawn) | Plant response rating, Foxtail, Giant | 80 |
| CC(C)c1cccc(C2CNC(=O)C2C(=O)Nc2ccccc2F)c1 (stereo not drawn) | Plant response rating, Foxtail, Giant | 70 |
